tested.target: Cytochrome P450 3A4 (Homo sapiens, UniProt P08684)
Sequence (P08684 whole entry): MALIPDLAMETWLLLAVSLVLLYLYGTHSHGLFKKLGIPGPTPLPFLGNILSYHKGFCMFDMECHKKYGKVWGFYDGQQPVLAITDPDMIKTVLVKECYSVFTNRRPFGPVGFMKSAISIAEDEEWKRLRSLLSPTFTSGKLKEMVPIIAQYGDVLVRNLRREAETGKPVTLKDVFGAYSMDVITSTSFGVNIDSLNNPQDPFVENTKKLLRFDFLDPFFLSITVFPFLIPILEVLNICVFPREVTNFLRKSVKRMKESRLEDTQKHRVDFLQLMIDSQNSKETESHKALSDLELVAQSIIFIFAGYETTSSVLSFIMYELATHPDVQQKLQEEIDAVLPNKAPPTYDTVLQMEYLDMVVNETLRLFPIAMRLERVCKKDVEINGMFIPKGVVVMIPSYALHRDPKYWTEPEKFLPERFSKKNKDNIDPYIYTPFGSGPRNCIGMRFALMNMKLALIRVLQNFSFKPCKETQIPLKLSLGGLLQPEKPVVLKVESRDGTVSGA
readout.kind: IC50 (µM)
Report as a plain number; the unit µM is understood.

// lookup IC50 | system=Cytochrome P450 3A4 (Homo sapiens, UniProt P08684) | key= CCN1CCC[C@H]1CNC(=O)c1cn(C2CCCC2)c(=O)c2c1c1ccccc1n2C 3.2

###

tested.target: Glucagon-like peptide 1 receptor (Homo sapiens, UniProt P43220)
Sequence (P43220 whole entry): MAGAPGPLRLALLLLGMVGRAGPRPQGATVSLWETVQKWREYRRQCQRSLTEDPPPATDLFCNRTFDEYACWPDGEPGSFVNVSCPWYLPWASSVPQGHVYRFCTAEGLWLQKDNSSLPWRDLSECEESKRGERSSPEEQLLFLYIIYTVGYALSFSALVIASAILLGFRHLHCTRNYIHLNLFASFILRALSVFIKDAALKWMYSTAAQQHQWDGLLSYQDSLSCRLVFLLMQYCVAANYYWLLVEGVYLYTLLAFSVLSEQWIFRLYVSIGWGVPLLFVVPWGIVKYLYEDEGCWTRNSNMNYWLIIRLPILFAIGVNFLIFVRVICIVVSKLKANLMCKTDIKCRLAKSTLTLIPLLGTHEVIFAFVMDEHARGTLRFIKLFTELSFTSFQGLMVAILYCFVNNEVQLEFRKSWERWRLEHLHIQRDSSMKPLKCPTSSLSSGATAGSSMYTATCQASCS
experimental.details: Positive allosteric modulation of human recombinant GLP1 receptor expressed in 9-3-H cells by calcium mobilization assay in presence of EC20 of liragulitide
Type: functional, cell-based
readout.kind: EC50 (µM)
Report as a plain number; the unit µM is understood.

Fill blank: measured EC50 of the compound CC(C)N1CCC[C@H]1CNC(=O)c1cn(C2CCCC2)c(=O)c2c1c1ccccc1n2C is ____. 30

###

tested.target: Glucagon-like peptide 1 receptor (Homo sapiens, UniProt P43220)
experimental.details: Positive allosteric modulation of human recombinant GLP1 receptor expressed in 9-3-H cells by calcium mobilization assay relative to control
Assay type: functional, cell-based
readout.kind: Emax (%)
Report as a plain number; the unit % is understood.

These solved cases illustrate the format of a correct answer.
CCCCCCN1CCC[C@H]1CNC(=O)c1cn(C2CCCC2)c(=O)c2c1c1ccccc1n2C
55.7
CC(C)N1CCC[C@H]1CNC(=O)c1cn(C2CCCC2)c(=O)c2c1c1ccccc1n2C
59.2
Cn1c2ccccc2c2c(C(=O)NC[C@@H]3CCCN3CCc3ccccc3)cn(C3CCCC3)c(=O)c21
68.5

Fill blank: measured Emax of the molecule CCCN1CCC[C@H]1CNC(=O)c1cn(C2CCCC2)c(=O)c2c1c1ccccc1n2C is ____. 48.4

Fill blank: measured Emax of the molecule COc1ccccc1CN1CCC[C@H]1CNC(=O)c1cn(C2CCCC2)c(=O)c2c1c1ccccc1n2C is ____. 68.3

Fill blank: measured Emax of the molecule CCN1CCC[C@H]1CNC(=O)c1cn(C2CCCC2)c(=O)c2c1c1ccccc1n2C is ____. 53.4

Fill blank: measured Emax of the molecule CCN1CCCC1CNC(=O)c1cn(C2CCCC2)c(=O)c2c1c1ccccc1n2C (racemic) is ____. 58.9

###

Record: pIC50 reported on Cytochrome P450 2C9 (Homo sapiens, UniProt P11712).
Sequence (P11712 whole entry): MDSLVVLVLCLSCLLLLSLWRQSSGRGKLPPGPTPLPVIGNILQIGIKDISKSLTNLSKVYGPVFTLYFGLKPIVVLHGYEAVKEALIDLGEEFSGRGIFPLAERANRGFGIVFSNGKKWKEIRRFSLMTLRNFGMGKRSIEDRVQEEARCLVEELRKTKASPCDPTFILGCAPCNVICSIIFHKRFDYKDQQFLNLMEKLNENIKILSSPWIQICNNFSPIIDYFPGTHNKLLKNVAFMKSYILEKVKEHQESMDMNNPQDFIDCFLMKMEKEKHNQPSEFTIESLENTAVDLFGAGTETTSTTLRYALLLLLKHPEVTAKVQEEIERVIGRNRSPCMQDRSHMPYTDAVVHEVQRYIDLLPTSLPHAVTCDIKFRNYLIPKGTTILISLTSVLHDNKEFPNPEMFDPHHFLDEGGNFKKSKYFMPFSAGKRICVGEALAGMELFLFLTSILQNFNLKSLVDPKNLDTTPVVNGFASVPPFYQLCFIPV
pIC50: −log10 of the molar value.

CCN1CCC[C@H]1CNC(=O)c1cn(C2CCCC2)c(=O)c2c1c1ccccc1n2C
< 4.70

Next item in the queue.
// lookup pIC50 | system=Cytochrome P450 2C9 (Homo sapiens, UniProt P11712) | key= CC(C)N1CCC[C@H]1CNC(=O)c1cn(C2CCCC2)c(=O)c2c1c1ccccc1n2C < 4.52

###

experimental.details: Intrinsic clearance in rat liver microsomes
Format: ADME
condition.notes: read-out: CLH
readout.kind: CLint scaled (mL/min/kg)
Report as a plain number; the unit mL/min/kg is understood.

Fill blank: measured CLint scaled of the compound CC(C)N1CCC[C@H]1CNC(=O)c1cn(C2CCCC2)c(=O)c2c1c1ccccc1n2C is ____. 19.9

###

EC50 values, listed per item
tested.target: Glucagon-like peptide 1 receptor (Homo sapiens)
experimental.details: Positive allosteric modulation of human recombinant GLP1 receptor expressed in 9-3-H cells by calcium mobilization assay
Format: functional, cell-based
condition.notes: read-out: EC50
Report as a plain number; the unit µM is understood.

These solved cases illustrate the format of a correct answer.
CCN1CCC[C@H]1CNC(=O)c1cn(C2CCCC2)c(=O)c2c1c1ccccc1n2C
2.4
COc1ccccc1CN1CCC[C@H]1CNC(=O)c1cn(C2CCCC2)c(=O)c2c1c1ccccc1n2C
12.1
Cn1c2ccccc2c2c(C(=O)NC[C@@H]3CCCN3CCc3ccccc3)cn(C3CCCC3)c(=O)c21
14.1
CC(C)N1CCC[C@H]1CNC(=O)c1cn(C2CCCC2)c(=O)c2c1c1ccccc1n2C
1.3
CCCCCCN1CCC[C@H]1CNC(=O)c1cn(C2CCCC2)c(=O)c2c1c1ccccc1n2C
10.3
CCN1CCCC1CNC(=O)c1cn(C2CCCC2)c(=O)c2c1c1ccccc1n2C (racemic)
4.1

// lookup EC50 | system=Glucagon-like peptide 1 receptor (Homo sapiens) | key= CCCN1CCC[C@H]1CNC(=O)c1cn(C2CCCC2)c(=O)c2c1c1ccccc1n2C 6.5
